Biological target: P. falciparum apicoplast DNA polymerase (Pf-apPOL) (Plasmodium falciparum, UniProt Q8ILY1)
Sequence (Q8ILY1 entry or part of it): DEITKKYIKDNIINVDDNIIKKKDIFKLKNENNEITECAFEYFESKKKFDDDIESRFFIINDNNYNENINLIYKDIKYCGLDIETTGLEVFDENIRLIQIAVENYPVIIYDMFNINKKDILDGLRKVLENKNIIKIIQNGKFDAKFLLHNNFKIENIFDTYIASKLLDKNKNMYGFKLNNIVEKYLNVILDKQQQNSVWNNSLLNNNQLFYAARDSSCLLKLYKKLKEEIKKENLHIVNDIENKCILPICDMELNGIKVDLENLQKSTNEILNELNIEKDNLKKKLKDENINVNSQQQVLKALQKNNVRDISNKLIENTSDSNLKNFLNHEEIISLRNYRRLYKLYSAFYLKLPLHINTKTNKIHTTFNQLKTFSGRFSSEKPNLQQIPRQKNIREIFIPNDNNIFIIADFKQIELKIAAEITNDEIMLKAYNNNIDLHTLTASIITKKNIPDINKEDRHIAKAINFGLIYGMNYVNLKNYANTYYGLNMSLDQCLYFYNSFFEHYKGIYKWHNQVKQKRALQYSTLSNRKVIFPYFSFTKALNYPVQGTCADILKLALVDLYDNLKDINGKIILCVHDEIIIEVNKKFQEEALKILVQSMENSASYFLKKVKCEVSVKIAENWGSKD
Test: Fluorescence-based high-throughput DNA polymerase assay (molecular beacon), primary screen and dose-response
Assay type: biochemical
Conditions: DRC-2; 90'; concentration 5
% inhibition ApPOL 90' for assorted compounds
Endpoint Name: % inhibition ApPOL 90' (%)

O=C(c1ccccc1)N1CCc2c(nc3cc(-c4ccccc4)[nH]n3c2=O)C1 18
COc1ccc(CNC(=O)Cn2nc3c(c2NC(=O)Cc2cccs2)CSC3)cc1 -7
Cc1ccc(NC(=O)C2CCN(C(=O)c3cc4ccsc4[nH]3)CC2)c(Br)c1 18
O=C(CSc1nnc(-c2ccco2)[nH]1)c1ccc(Cl)cc1 -0.831
NC(=O)c1cc[n+](CC2=C(C(=O)[O-])N3C(=O)[C@@H](NC(=O)[C@@H](c4ccccc4)S(=O)(=O)[O-])[C@H]3SC2)cc1.[Na+] 8

* * *

Target: UniProt Q8ILY1
Assay: Fluorescence-based high-throughput DNA polymerase assay (molecular beacon), primary screen and dose-response
Format: biochemical
Conditions: DRC-2; read at 90'; concentration 5

Compound	Unit String	% inhibition ApPOL 90' 5
C#CC(C=CC)OC(=O)c1ccccc1C(=O)O (stereo not drawn) [Molecule 61, CC=CC(OC(=O)c1ccccc1C(=O)O)C#C]	%	5.31
CCCc1ccc(Oc2coc3cc(OC)ccc3c2=O)cc1 [KU0193249]	%	14
Nc1cc(Oc2ccc(O)c(N)c2)ccc1O [KU0034728]	%	40
Cn1nc(-c2nnc(-c3ccccc3F)o2)c2c1CCN(C(=O)c1ccccc1Cl)C2 [Molecule 34]	%	27
Cc1nc(C)c2c(n1)N(CC1CCCCC1)C(=O)CC2 [KU0218606]	%	31
CC(C)CC(C(=O)O)N1C(=O)C2C3C=CC(C2C1=O)C1C(=O)N(C(CC(C)C)C(=O)O)C(=O)C31 (stereo not drawn) [KU0193449]	%	4.24
CC(=O)Nc1cc(C(=O)c2cccs2)nn(-c2ccc(Cl)cc2)c1=O [KU0267905]	%	4
N#Cc1c(O)nc(N2CCCCC2)nc1-c1ccc2c(c1)OCO2 [KU0083146]	%	26
O=C(CCc1csc(NC(=O)Nc2ccccc2)n1)Nc1nc2ccccc2s1 [KU0177354]	%	-7

* * *

% inhibition Apo pol 10' for assorted compounds
Molecular target: P. falciparum apicoplast DNA polymerase (Pf-apPOL) (Plasmodium falciparum, UniProt Q8ILY1)
Experiment: Fluorescence-based high-throughput DNA polymerase assay (molecular beacon), primary screen and dose-response
Format: biochemical
Details: DRC-1; 10'; concentration 20
Text: The HT assay employs a molecular beacon, a stem-loop DNA template with a Cy3 dye and the Black Hole Quencher on the 3′ and 5′ ends of the DNA, respectively. Pf-apPOL concentration is based on a calculated absorptivity of ε280 = 56750 M^−1 cm^−1. […] To identify apPOL inhibitors we utilised our previously developed high-throughput DNA polymerase assay. […] The assay accurately recapitulates the kinetic behaviour of apPOL, as measured through more conventional low-throughput gel-based assays. […]

Compound	Tested On	Unit String	% inhibition Apo pol 10'
COc1ccc(C)cc1NC(=O)Cn1ccc2c(=O)[nH]ccc21 [Molecule 15, COc1ccc(cc1NC(=O)Cn1ccc2c1cc[nH]c2=O)C]	P. falciparum apicoplast DNA polymerase (Pf-apPOL) (Plasmodium falciparum, UniProt Q8ILY1)	%	81.9832
CC(=O)Nc1cc(C(=O)NC(C)C)c2ccc(C)nc2c1 [KU0206312]	P. falciparum apicoplast DNA polymerase (Pf-apPOL) (Plasmodium falciparum, UniProt Q8ILY1)	%	47.6334
COc1ccc2c(c1)CCc1c-2nc2ccc(Br)cc2c1C(=O)O [KU0059417]	P. falciparum apicoplast DNA polymerase (Pf-apPOL) (Plasmodium falciparum, UniProt Q8ILY1)	%	55.4931
O=C(Cn1ccc2c(=O)[nH]ccc21)Nc1ccc(Cl)cc1 [Molecule 36, O=C(Cn1ccc2c1cc[nH]c2=O)Nc1ccc(cc1)Cl]	P. falciparum apicoplast DNA polymerase (Pf-apPOL) (Plasmodium falciparum, UniProt Q8ILY1)	%	79.2996
COc1ccc(C(=O)N2CCc3c(nc4cc(-c5ccccc5Cl)[nH]n4c3=O)C2)cn1 [Molecule 26]	P. falciparum apicoplast DNA polymerase (Pf-apPOL) (Plasmodium falciparum, UniProt Q8ILY1)	%	85
CN(C)C=C1SCc2ccccc2C1=O [Molecule 77, CN(C=C1SCc2c(C1=O)cccc2)C]	P. falciparum apicoplast DNA polymerase (Pf-apPOL) (Plasmodium falciparum, UniProt Q8ILY1)	%	51.9221
O=C(NNC(=O)c1ccc(Cl)cc1)C(=O)NNC(=O)c1ccc(Cl)cc1 [Molecule 25]	P. falciparum apicoplast DNA polymerase (Pf-apPOL) (Plasmodium falciparum, UniProt Q8ILY1)	%	61.5061
Cc1ccccc1C(=O)N1CCc2c(nc3cc(-c4ccccc4)[nH]n3c2=O)C1 [Molecule 41]	P. falciparum apicoplast DNA polymerase (Pf-apPOL) (Plasmodium falciparum, UniProt Q8ILY1)	%	74.5975
O=C(Nc1ccc2c(c1)Cc1cc(NC(=O)c3ccco3)ccc1-2)c1ccco1 [KU0038977]	P. falciparum apicoplast DNA polymerase (Pf-apPOL) (Plasmodium falciparum, UniProt Q8ILY1)	%	37.8617
CCCCC(=O)N1CCc2c(nc3cc(-c4ccccc4Cl)[nH]n3c2=O)C1 [Molecule 37]	P. falciparum apicoplast DNA polymerase (Pf-apPOL) (Plasmodium falciparum, UniProt Q8ILY1)	%	65.8539
Cc1nc(/N=N/c2ccc(C(=O)[O-])cc2)c(COP(=O)([O-])[O-])c(C=O)c1O.[Na+].[Na+].[Na+] [KU0261395]	P. falciparum apicoplast DNA polymerase (Pf-apPOL) (Plasmodium falciparum, UniProt Q8ILY1)	%	83.4638
CCSc1nnc(NC(=O)Cc2csc(NC(=O)c3cnccn3)n2)s1 [Molecule 79]	P. falciparum apicoplast DNA polymerase (Pf-apPOL) (Plasmodium falciparum, UniProt Q8ILY1)	%	21.8429
Cc1ccc(NC(=O)C2CCN(C(=O)c3cc4ccsc4[nH]3)CC2)c(Br)c1 [Molecule 14]	P. falciparum apicoplast DNA polymerase (Pf-apPOL) (Plasmodium falciparum, UniProt Q8ILY1)	%	88
Cc1ccc2c(C(=O)NCCc3cccnc3)cc(NC(=O)C(C)C)cc2n1 [KU0206096]	P. falciparum apicoplast DNA polymerase (Pf-apPOL) (Plasmodium falciparum, UniProt Q8ILY1)	%	37.57
O=c1cc(-c2ccccc2Cl)oc2c(NS(=O)(=O)c3cc(Cl)cc(Cl)c3O)ccc(O)c12 [KU0104277]	P. falciparum apicoplast DNA polymerase (Pf-apPOL) (Plasmodium falciparum, UniProt Q8ILY1)	%	27.5333
CO/N=C(\C(=O)N[C@@H]1C(=O)N2C(C(=O)[O-])=C(CSc3nc(=O)c([O-])nn3C)CSC12)c1csc(N)n1.[Na+].[Na+] (some centres unmarked) [Molecule 83]	P. falciparum apicoplast DNA polymerase (Pf-apPOL) (Plasmodium falciparum, UniProt Q8ILY1)	%	50.9335
Cc1nn(CC(=O)NCCSCc2ccco2)c(C)c1Br [KU0267182]	P. falciparum apicoplast DNA polymerase (Pf-apPOL) (Plasmodium falciparum, UniProt Q8ILY1)	%	17.8463

* * *

Target: bacteriophage T4 DNA polymerase (Enterobacteria phage T4)
Construct: made in house
Sequence (P04415 1-898): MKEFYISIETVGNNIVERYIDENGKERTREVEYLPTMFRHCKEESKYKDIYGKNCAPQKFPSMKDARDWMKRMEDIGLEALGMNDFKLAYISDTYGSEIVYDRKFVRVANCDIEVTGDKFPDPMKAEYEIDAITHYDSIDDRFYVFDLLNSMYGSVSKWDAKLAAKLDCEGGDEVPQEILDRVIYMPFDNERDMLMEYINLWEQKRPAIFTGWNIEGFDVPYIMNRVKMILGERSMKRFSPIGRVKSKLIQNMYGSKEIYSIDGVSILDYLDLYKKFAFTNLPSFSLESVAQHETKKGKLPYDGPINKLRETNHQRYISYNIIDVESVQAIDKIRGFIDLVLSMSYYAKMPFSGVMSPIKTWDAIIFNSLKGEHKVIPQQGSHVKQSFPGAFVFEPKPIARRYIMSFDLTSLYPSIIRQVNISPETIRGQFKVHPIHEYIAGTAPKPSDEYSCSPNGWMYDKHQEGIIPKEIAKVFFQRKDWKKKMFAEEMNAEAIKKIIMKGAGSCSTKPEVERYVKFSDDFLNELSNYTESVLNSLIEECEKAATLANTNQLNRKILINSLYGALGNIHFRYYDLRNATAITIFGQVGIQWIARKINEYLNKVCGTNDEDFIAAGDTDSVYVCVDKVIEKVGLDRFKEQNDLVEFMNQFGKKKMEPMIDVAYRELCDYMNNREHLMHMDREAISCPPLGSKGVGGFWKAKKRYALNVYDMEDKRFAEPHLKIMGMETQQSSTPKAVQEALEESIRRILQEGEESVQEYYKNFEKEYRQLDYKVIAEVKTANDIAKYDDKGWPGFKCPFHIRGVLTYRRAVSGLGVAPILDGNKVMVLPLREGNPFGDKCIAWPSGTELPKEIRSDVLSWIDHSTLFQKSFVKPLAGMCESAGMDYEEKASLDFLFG
Assay: Counter-screen against bacteriophage T4 DNA polymerase
Type: biochemical
Conditions: DRC-2; read at 40'; concentration 2.5
Endpoint Name: % inhibition T4 40' 2.5 (%)

Compound	Unit String	Endpoint Value
Cc1cccc(-c2noc(C(=O)NNC(=O)C(Cl)(Cl)Cl)n2)c1 [KU0266208]	%	7
N#Cc1c(O)nc(N2CCCCC2)nc1-c1ccc2c(c1)OCO2 [KU0083146]	%	13
Cc1nc(C)c2c(n1)N(CC1CCCCC1)C(=O)CC2 [KU0218606]	%	4
CC(=O)Nc1cc(C(=O)c2cccs2)nn(-c2ccc(Cl)cc2)c1=O [KU0267905]	%	7
CC(=O)OCC1=C(C(=O)[O-])N2C(=O)[C@@H](NC(=O)Cc3cccs3)[C@H]2SC1.[Na+] [Molecule 73]	%	0.442
COc1ccc(/C=C/c2cc(C(=O)O)c3ccccc3n2)cc1 [Molecule 5, COc1ccc(cc1)/C=C/c1nc2ccccc2c(c1)C(=O)O]	%	4
C#CC(C=CC)OC(=O)c1ccccc1C(=O)O (centres unmarked) [Molecule 61, CC=CC(OC(=O)c1ccccc1C(=O)O)C#C]	%	-4.37
Cc1ccsc1Cn1c(C)ccc1C [Molecule 70, Cc1ccsc1Cn1c(C)ccc1C]	%	-7
